B1: CPEB3 Ribozyme (parent)
chain: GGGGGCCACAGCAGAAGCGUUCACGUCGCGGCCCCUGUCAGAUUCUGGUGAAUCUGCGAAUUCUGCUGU

- Variants of: B1
- assay-remarks: self-cleavage, relative activity (ratio to wild type); higher = more cleavage; co-transcriptional
readout: self-cleavage
Lab note: jot down the number only; don't add units.

- mutation-descriptor: "G4U G65C"
  readout: "self-cleavage"
  observed-result: 0.411
- mutation-descriptor: "C24G U26G"
  readout: "self-cleavage"
  observed-result: 0.344
- mutation-descriptor: "A10G C34U"
  readout: "self-cleavage"
  observed-result: 0.982
- mutation-descriptor: "U21G G68C"
  readout: "self-cleavage"
  observed-result: 0.783
- mutation-descriptor: "A10G C18U"
  readout: "self-cleavage"
  observed-result: 0.264

Task item: // self-cleavage lookup, key: C7U G56A
Reply: 0.916

Task item: Param item: C32U G50C
Reply: 0.991

Task item: Entry G3C U61A please
Reply: 0.0406

Task item: Again, but for G3C G68U
Reply: 0.374

Task item: // repeat for U38G G50C and report
Reply: 0.161

Task item: Same question, A15C U26G this time
Reply: 0.586

Task item: Next record, please: U36G U46A
Reply: 0.349

Task item: Try C6G C7A next.
Reply: 0.0493
